# SYSTEM TESTED: recombinant human IGFBP-3 (human, UniProt P17936 28-291)
# Sequence (P17936 28-291 limits assumed): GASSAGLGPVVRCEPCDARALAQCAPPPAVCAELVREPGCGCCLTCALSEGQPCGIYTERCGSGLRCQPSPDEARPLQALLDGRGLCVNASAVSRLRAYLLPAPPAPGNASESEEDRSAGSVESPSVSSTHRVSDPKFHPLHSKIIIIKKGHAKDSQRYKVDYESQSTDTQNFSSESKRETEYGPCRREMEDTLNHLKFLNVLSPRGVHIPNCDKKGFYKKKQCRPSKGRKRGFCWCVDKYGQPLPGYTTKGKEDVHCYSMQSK
# ASSAY PROCEDURE: BIAcore competition, IGFBP-3 to immobilized IGF-1
pIC50: −log10 of the molar value. Positions of bridges follow the written chain, without caps; N, C: chain ends. No end group written: not given here.

| BINDER | pIC50 |
| --- | --- |
| VCWPVAEWYLCNMWG (disulfide 2-11) [BP3-16] | 4.52 |
| TVANCDCYMPLCLCYDSD (disulfide 7-12; disulfide 5-14 (inferred)) [BP3-08] | 4.82 |
| EESECFEGPGYVICGLVG (disulfide 5-14) [BP3-4B3.3] | 4.10 |
